Value source: patent US5599808A

Assay: physchem
Settings: 50% peg 1000, 50% h2o, organic solvent or mixture, Concentration Obtained
metric: solubility thermodynamic (µg/mL)
Report as a plain number; the unit µg/mL is understood.

// sample CC[S+]([O-])Cc1ccc2c(c1)c1c3c(c4c5ccccc5n5c4c1n2C1CC(O)(C(=O)OC)C5(C)O1)CNC3=O (stereo not shown) [Compound C] , its solubility thermodynamic was 720

----------
Assay: Concentration of dissolved indolocarbazole obtained in aqueous solutions (HPLC)
Conditions: peg 600/ba/h2o, organic solvent or mixture, Concentration Obtained, Example 5: 50% PEG 600, 2% BA, 48% H2O; target 10 mg/ml
metric: solubility thermodynamic (µg/mL)
Report as a plain number; the unit µg/mL is understood.

# count of solved cases: 2
COC(=O)C1(O)CC2OC1(C)n1c3ccccc3c3c4c(c5c6cc(O)ccc6n2c5c31)C(=O)NC4 (stereo not drawn) [Compound B]    3590
CN[C@@H]1C[C@H]2O[C@@](C)([C@@H]1OC)n1c3ccccc3c3c4c(c5c6ccccc6n2c5c31)C(=O)NC4 [Staurosporine, staurosporine]    1890

Let's switch to this compound now.
// sample COC(=O)C1(O)CC2OC1(C)n1c3ccccc3c3c4c(c5c6ccccc6n2c5c31)C(=O)NC4 (stereo not drawn) [Compound K-252a] , its solubility thermodynamic was 2720

----------
Experiment: physchem
Conditions: 50% peg 400, 50% h2o, organic solvent or mixture, Concentration Obtained
metric: solubility thermodynamic

// sample CC[S+]([O-])Cc1ccc2c(c1)c1c3c(c4c5ccccc5n5c4c1n2C1CC(O)(C(=O)OC)C5(C)O1)CNC3=O (stereo not shown) [Compound C] , its solubility thermodynamic was 750 µg/mL

----------
Assay: physchem
Conditions: peg 600/ba/triton x-100/h2o, organic solvent or mixture, Concentration Obtained
metric: solubility thermodynamic (µg/mL)
Report as a plain number; the unit µg/mL is understood.

// sample CC[S+]([O-])Cc1ccc2c(c1)c1c3c(c4c5ccccc5n5c4c1n2C1CC(O)(C(=O)OC)C5(C)O1)CNC3=O (stereo not shown) , its solubility thermodynamic was 4630

----------
Experiment: physchem
Conditions: peg 600/ba/tween 80/h2o, organic solvent or mixture, Concentration Obtained
metric: solubility thermodynamic (µg/mL)
Report as a plain number; the unit µg/mL is understood.

// sample CC[S+]([O-])Cc1ccc2c(c1)c1c3c(c4c5ccccc5n5c4c1n2C1CC(O)(C(=O)OC)C5(C)O1)CNC3=O (stereo not shown) , its solubility thermodynamic was 4790

----------
Test: physchem
Conditions: peg 600/ba/h2o, organic solvent or mixture, Concentration Obtained
metric: solubility thermodynamic (µg/mL)
Report as a plain number; the unit µg/mL is understood.

// sample CC[S+]([O-])Cc1ccc2c(c1)c1c3c(c4c5ccccc5n5c4c1n2C1CC(O)(C(=O)OC)C5(C)O1)CNC3=O (stereo not shown) , its solubility thermodynamic was 890

----------
Test: Concentration of dissolved indolocarbazole obtained in aqueous solutions (HPLC)
Settings: peg 400/ba/tween 80/h2o, organic solvent or mixture, Concentration Obtained, Example 11: 47.5% PEG 400, 2.5% BA, 2.5% Tween 80, 47.5% H2O; target 10 mg/ml
Experimental: In general, a solution of the concentrate can be prepared by combining a dispersant such as polyvinylpyrrolidone C-30 and a selected organic solvent such as propylene glycol into a beaker. The mixture is continuously stirred until completely dissolved. […] Fifty g of PEG-400 were added to 50 ml of water and the mixture vigorously stirred until completely dissolved. […] Ten μl of the supernatant was removed, diluted with DMSO (100:1) and the concentration of dissolved K-252a determined by HPLC. […]
metric: solubility thermodynamic (µg/mL)
Report as a plain number; the unit µg/mL is understood.

// sample COC(=O)C1(O)CC2OC1(C)n1c3ccccc3c3c4c(c5c6ccccc6n2c5c31)C(=O)NC4 (stereo not shown) [Compound K-252a] , its solubility thermodynamic was 3700
